Reference for the values: ChEMBL document CHEMBL1156579

Assay: Oral bioavailability in dog
Format: ADME, organism-based, Canis lupus familiaris
Settings: in vivo
Measured parameter: bioavailability (%)
# unit: % | format: bare number

get_value(item= `CCCCOC(=O)COc1cc(-c2ccccc2S(C)(=O)=O)ccc1CCNS(=O)(=O)c1cc(C(=N)NO)ccc1O.Cl` , readout=bioavailability) returns 4.9

---

Target: Trypsin (Homo sapiens, UniProt P07477+P07478+P35030)
Assay: Inhibition of human trypsin by Dixon-plot method
Type: protein assay
Catalogue of Ki values
In your response, the unit should come after the numeric value.

Please review the entries below; each comes with its answer.
Structure smiles	Study system	Ki
CS(=O)(=O)c1ccccc1-c1ccc(CCNS(=O)(=O)c2cc(C(=N)N)ccc2O)c(OCC(=O)O)c1.Cl	Trypsin (Homo sapiens, UniProt P07477+P07478+P35030)	1170 nM
CC(C)c1ccc(CCN(C)S(=O)(=O)c2cc(C(=N)N)ccc2O)cc1	Trypsin (Homo sapiens, UniProt P07477+P07478+P35030)	770 nM
CC(C)c1ccc(CCNS(=O)(=O)c2cc(C(=N)N)ccc2Cl)cc1	Trypsin (Homo sapiens, UniProt P07477+P07478+P35030)	4000 nM
CC(=N)N1CCC(c2ccc(NC(=O)CN(Cc3cccc(OCC(=O)O)c3)c3cccc(C(=N)N)c3)cc2)CC1	Trypsin (Homo sapiens, UniProt P07477+P07478+P35030)	6170 nM

Turning now to a further record.
// `CC(C)c1ccc(CCNS(=O)(=O)c2cc(C(=N)N)ccc2O)cc1` : Ki value = 800 nM
